Assay: CCTE_Shafer_MEA_acute_burst_duration_mean: CCTE's Neural Acute Assay for Mean Burst Duration, Shafer Lab (AID 2284014);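 note: hits are decreases in mean burst duration relative to DMSO controls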
Calls of active or inactive are those of the source. Rule for the calls: active = hit-call score of the fitted dose curve at least 0.9, where 1 is the maximum; inactive = score below 0.9.
Response enum: active, inactive

The following molecules have reported results that may help.
CC(C)(C)c1ccc(CSc2cnn(C(C)(C)C)c(=O)c2Cl)cc1
active
CC1COC(Cn2cncn2)(c2ccc(Oc3ccc(Cl)cc3)cc2Cl)O1 (stereo unspecified)
inactive

Inquiry: Returns: the outcome recorded for COC(=O)N(OC)c1ccccc1COc1ccn(-c2ccc(Cl)cc2)n1 in this assay.
Reply text: inactive

Inquiry: Same for COP(=S)(OC)Oc1nc(Cl)c(Cl)cc1Cl
Reply text: inactive

Inquiry: Another molecule to look at: CCCC1COC(Cn2cncn2)(c2ccc(Cl)cc2Cl)O1 (stereo unspecified)
Reply text: inactive

Inquiry: Do the same for CC(C)Oc1cc(-n2nc(C(C)(C)C)oc2=O)c(Cl)cc1Cl please
Reply text: inactive

====

Assay: TOX21_p53_BLA_p3_viability: Viability Assessment in the Tox21 HCT-116 p53 Agonism Beta-lactamase Assay, Phase 3 (AID 2283593);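 note: cells exposed to compound for 16 h before reading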
Results filed as inconclusive are left out. Calls of active or inactive are those of the source. Rule for the calls: active = hit-call score of the fitted dose curve at least 0.9, where 1 is the maximum; inconclusive = response in the unintended direction; inactive = score below 0.9.
Outcome measure: outcome

Known outcome results, listed for orientation:
COP(=S)(OC)Oc1nc(Cl)c(Cl)cc1Cl
inactive
COc1cnc(OC)n2nc(NS(=O)(=O)c3c(OCC(F)F)cccc3C(F)(F)F)nc12
inactive
N#Cc1nn(-c2c(Cl)cc(C(F)(F)F)cc2Cl)c(N)c1S(=O)C(F)(F)F (configuration not stated)
inactive
CNC(=S)S
inactive
CC(C)Oc1cc(-n2nc(C(C)(C)C)oc2=O)c(Cl)cc1Cl
inactive
COC(=O)N(OC)c1ccccc1COc1ccn(-c2ccc(Cl)cc2)n1
inactive
N#CC(CCc1ccc(Cl)cc1)(Cn1cncn1)c1ccccc1 (configuration not stated)
inactive
CON(C)C(=O)Nc1ccc(Cl)c(Cl)c1
inactive

Inquiry: I would be grateful if you could share the reported outcome for CCCCOC(=O)c1ccccc1C(=O)OCCCC .
Reply text: inactive

Inquiry: What do you have for O=C(O)COc1nc(Cl)c(Cl)cc1Cl ?
Reply text: inactive

Inquiry: Input CC1COC(Cn2cncn2)(c2ccc(Oc3ccc(Cl)cc3)cc2Cl)O1 (configuration not stated)
Reply text: inactive

Inquiry: What about this compound? CCOc1cc(Oc2ccc(C(F)(F)F)cc2Cl)ccc1[N+](=O)[O-]
Reply text: inactive

====

Read-out: Interleukin-8 (IL8), CXCL8 (gene 3576)
Assay: BSK_SAg_IL8: BioMAP Diversity Plus: SAg Assay for Interleukin-8 (IL8) Biomarker Activity (AID 2283094)
Conditions: primary human HUVEC with PBMC; actives raise or lower the signal
Calls of active or inactive are those of the source. Rule for the calls: active = hit-call score of the fitted dose curve at least 0.9, where 1 is the maximum; inactive = score below 0.9.
Outcomes you can answer with include only these: T = active, F = inactive

Inquiry: Per the assay record, what outcome was assigned to CC1COC(Cn2cncn2)(c2ccc(Oc3ccc(Cl)cc3)cc2Cl)O1 (stereo unspecified) ?
Reply text: T

Inquiry: Here is the next compound: Oc1ccccc1-c1ccccc1
Reply text: F

Inquiry: Then C#CCOS(=O)OC1CCCCC1Oc1ccc(C(C)(C)C)cc1 (stereo unspecified) ?
Reply text: T

Inquiry: Record: O=C(O)c1nc(Cl)ccc1Cl
Reply text: F

Inquiry: And what about the compound CC(C)Oc1cc(-n2nc(C(C)(C)C)oc2=O)c(Cl)cc1Cl ?
Reply text: T

Inquiry: Moving on to CC(C)(C)c1ccc(CSc2cnn(C(C)(C)C)c(=O)c2Cl)cc1
Reply text: T

====

Experiment: CEETOX_H295R_ESTRADIOL: CeeTox H295R High-throughput Steroidogenesis Assay for Estradiol (AID 2283440);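 note: estradiol secreted into medium quantified by LC-MS/MS after dansyl derivatisation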
Conditions: actives raise or lower the signal
Activity calls are given as the source filed them. Rule for the calls: active = hit-call score of the fitted dose curve at least 0.9, where 1 is the maximum; inactive = score below 0.9.
Select the matching outcome among y for active, n for inactive

CCOC(=O)C(Cl)Cc1cc(-n2nc(C)n(C(F)F)c2=O)c(F)cc1Cl (configuration not stated)
n
C=CC1(C)OC(=O)N(c2cc(Cl)cc(Cl)c2)C1=O (configuration not stated)
n
CC1=C(C(=O)Nc2ccccc2)SCCO1
y
CCNc1nc(Cl)nc(NCC)n1
n
CC(C)Oc1cc(-n2nc(C(C)(C)C)oc2=O)c(Cl)cc1Cl
n

Inquiry: Look up the recorded call for CCNc1nc(Cl)nc(NC(C)C)n1 in this test.
Reply text: n

Inquiry: Also check CCOP(=S)(OCC)SCn1c(=O)oc2cc(Cl)ccc21
Reply text: y

====

Read-out: E-selectin (Homo sapiens) (UniProt P16581)
Sequence (P16581 whole entry, looked up): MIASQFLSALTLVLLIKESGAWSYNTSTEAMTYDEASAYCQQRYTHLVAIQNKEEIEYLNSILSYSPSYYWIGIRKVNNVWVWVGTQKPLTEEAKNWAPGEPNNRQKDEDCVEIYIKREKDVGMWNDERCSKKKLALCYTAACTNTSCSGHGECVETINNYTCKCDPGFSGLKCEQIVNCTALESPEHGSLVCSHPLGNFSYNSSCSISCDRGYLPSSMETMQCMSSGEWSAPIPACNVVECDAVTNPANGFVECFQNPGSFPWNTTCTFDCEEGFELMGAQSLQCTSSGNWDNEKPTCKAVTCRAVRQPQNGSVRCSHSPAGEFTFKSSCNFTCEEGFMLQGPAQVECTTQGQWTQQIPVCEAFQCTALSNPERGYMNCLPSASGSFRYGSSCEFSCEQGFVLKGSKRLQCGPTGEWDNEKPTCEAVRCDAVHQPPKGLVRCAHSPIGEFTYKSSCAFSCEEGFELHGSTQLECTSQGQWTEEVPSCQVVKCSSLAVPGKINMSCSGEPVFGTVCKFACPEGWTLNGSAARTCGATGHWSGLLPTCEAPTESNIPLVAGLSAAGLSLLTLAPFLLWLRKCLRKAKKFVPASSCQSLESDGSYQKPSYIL
Assay: BSK_3C_Eselectin: BioMAP Diversity Plus: 3C Assay for Eselectin Biomarker Activity (AID 2283015)
Conditions: primary human endothelial cells (HUVEC); actives raise or lower the signal
Activity calls are given as the source filed them. How the source made its calls: active means hit-call score of the fitted dose curve at least 0.9, where 1 is the maximum; inactive means score below 0.9.
Respond with a class label; see active, inactive

COc1nc(C)nc(NC(=O)NS(=O)(=O)c2ccccc2Cl)n1
inactive
CC(C)(C)c1ccc(CSc2cnn(C(C)(C)C)c(=O)c2Cl)cc1
active
COC(=O)c1ccccc1C(=O)OC
inactive

Inquiry: Fill in: this test's call for COc1nc(NC(C)C)nc(NC(C)C)n1 is ___
Reply text: inactive

Inquiry: Follow-up item: N#CC(CCc1ccc(Cl)cc1)(Cn1cncn1)c1ccccc1 (centres undefined)
Reply text: inactive

Inquiry: How about Fc1ccc(Oc2ccnc3cc(Cl)cc(Cl)c23)cc1 ?
Reply text: active

Inquiry: Another molecule to look at: Cc1ccc(-c2c(Cl)nc(C#N)n2S(=O)(=O)N(C)C)cc1
Reply text: active

Inquiry: Record: OC(c1ccc(Cl)cc1)(c1cncnc1)c1ccccc1Cl (centres undefined)
Reply text: inactive

Inquiry: One more molecule: CNC(=S)S
Reply text: active

====

Read-out: CD69, CD69 (gene 969)
Test: BSK_SAg_CD69: BioMAP Diversity Plus: SAg Assay for CD69 Biomarker Activity (AID 2283089)
Conditions: primary human HUVEC with PBMC; actives raise or lower the signal
Calls of active or inactive are those of the source. How the source made its calls: active means hit-call score of the fitted dose curve at least 0.9, where 1 is the maximum; inactive means score below 0.9.
Please state which outcome applies, choosing from active, inactive

These recorded examples may help you get a feel for the data.
CCON=C(CC)C1=C(O)CC(c2c(C)cc(C)cc2C)CC1=O (stereo not given)
inactive
CCOc1cc(Oc2ccc(C(F)(F)F)cc2Cl)ccc1[N+](=O)[O-]
inactive
C#CCOS(=O)OC1CCCCC1Oc1ccc(C(C)(C)C)cc1 (stereo not given)
active
C=CCC1=C(C)C(OC(=O)C2C(C=C(C)C)C2(C)C)CC1=O (stereo not given)
active
COc1nc(NC(C)C)nc(NC(C)C)n1
inactive
CNC(=S)S
inactive

Inquiry: Assay outcome for CNC(=O)ON=CC(C)(C)SC : what was it?
Reply text: inactive

Inquiry: Another compound to look at: CCNc1nc(Cl)nc(NC(C)C)n1
Reply text: inactive

Inquiry: Input COc1nc(C)nc(NC(=O)NS(=O)(=O)c2ccccc2CCC(F)(F)F)n1
Reply text: inactive

Inquiry: Same question for CCCC1COC(Cn2cncn2)(c2ccc(Cl)cc2Cl)O1 (stereo not given) please.
Reply text: inactive

Inquiry: Try this compound next: CCNc1nc(Cl)nc(NCC)n1
Reply text: inactive

Inquiry: Repeat with N#CC(CCc1ccc(Cl)cc1)(Cn1cncn1)c1ccccc1 (stereo not given)
Reply text: inactive

====

Read-out: Monocyte Chemoattractant Protein-1 (MCP1), CCL2 (gene 6347)
Assay: BSK_CASM3C_MCP1: BioMAP Diversity Plus: CASM3C Assay for Monocyte Chemoattractant Protein-1 (MCP1) Biomarker Activity (AID 2283046);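 note: MCP-1 level quantified by ELISA 24 h after dosing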
Conditions: primary human coronary artery smooth muscle cells; actives raise or lower the signal
Activity calls are given as the source filed them. How the source made its calls: active means hit-call score of the fitted dose curve at least 0.9, where 1 is the maximum; inactive means score below 0.9.
Answer with one of the outcomes given here: yes (1) = active, no (0) = inactive

Here are 6 molecules together with their reported answers.
CCCN(CCC)c1c([N+](=O)[O-])cc(S(N)(=O)=O)cc1[N+](=O)[O-]
yes (1)
CCOC(=O)CC(SP(=S)(OC)OC)C(=O)OCC (stereo not drawn)
no (0)
CCCCNC(=O)n1c(NC(=O)OC)nc2ccccc21
no (0)
COP(=S)(OC)Oc1nc(Cl)c(Cl)cc1Cl
no (0)
CNC(=O)ON=CC(C)(C)SC
no (0)
O=C(O)COc1nc(Cl)c(Cl)cc1Cl
no (0)

Inquiry: Hi team, can someone confirm the assay call for CN(C)C(=S)SSC(=S)N(C)C ?
Reply text: yes (1)

Inquiry: Similarly, CC(C)(C)c1ccc(CSc2cnn(C(C)(C)C)c(=O)c2Cl)cc1 ?
Reply text: no (0)

====

Biological target: Aryl hydrocarbon receptor (Homo sapiens) (UniProt P35869)
Sequence (P35869 whole entry, looked up): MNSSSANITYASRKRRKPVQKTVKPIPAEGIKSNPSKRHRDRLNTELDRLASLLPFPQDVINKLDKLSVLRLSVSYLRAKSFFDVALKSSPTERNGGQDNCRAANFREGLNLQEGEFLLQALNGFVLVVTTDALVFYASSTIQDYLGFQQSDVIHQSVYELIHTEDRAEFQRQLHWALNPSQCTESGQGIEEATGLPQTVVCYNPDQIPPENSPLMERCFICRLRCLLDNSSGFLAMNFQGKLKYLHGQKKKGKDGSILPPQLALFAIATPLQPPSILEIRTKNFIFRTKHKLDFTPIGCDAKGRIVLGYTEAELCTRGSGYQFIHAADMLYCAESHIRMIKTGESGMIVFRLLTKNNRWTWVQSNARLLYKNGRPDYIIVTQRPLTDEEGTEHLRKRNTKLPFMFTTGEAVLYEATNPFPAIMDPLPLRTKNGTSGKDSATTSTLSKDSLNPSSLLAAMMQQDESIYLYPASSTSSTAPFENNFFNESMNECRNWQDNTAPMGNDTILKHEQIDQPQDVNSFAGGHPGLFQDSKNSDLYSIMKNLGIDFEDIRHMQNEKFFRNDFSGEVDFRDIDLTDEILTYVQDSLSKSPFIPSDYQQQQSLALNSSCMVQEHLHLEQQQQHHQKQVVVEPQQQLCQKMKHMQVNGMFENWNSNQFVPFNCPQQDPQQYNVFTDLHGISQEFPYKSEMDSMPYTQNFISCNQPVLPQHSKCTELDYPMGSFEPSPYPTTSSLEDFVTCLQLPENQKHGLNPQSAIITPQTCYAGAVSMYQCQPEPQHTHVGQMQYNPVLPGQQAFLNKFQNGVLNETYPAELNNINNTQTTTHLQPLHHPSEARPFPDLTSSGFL
Assay: ATG_Ahr_CIS: Attagene CIS-FACTORIAL HepG2 Assay for human Aryl Hydrocarbon Receptor (Ahr) (AID 2282930)
Settings: HepG2 AhR cis-factorial reporter transcription; actives raise or lower the signal
Activity calls are given as the source filed them. Rule for the calls: active = hit-call score of the fitted dose curve at least 0.9, where 1 is the maximum; inactive = score below 0.9.
Outcome measure: outcome

N#CC(CCc1ccc(Cl)cc1)(Cn1cncn1)c1ccccc1 (stereo not drawn)
inactive
Cc1ccc(-c2c(Cl)nc(C#N)n2S(=O)(=O)N(C)C)cc1
inactive
CCNc1nc(Cl)nc(NC(C)C)n1
inactive
